Entries and their z-score of subpopulation abundance values follow.
- Test system: Saccharomyces cerevisiae BY4741 SeMeCo community
- procedure.details: z-score of subpopulation abundance vs DMSO median, subpopulation auxotrophic for HUM; higher = larger share of this subpopulation than in DMSO controls
- measurement.context: 10 µM; 24 h; SM minimal medium; subpopulation (auxotrophy): HUM
Where a name gives a salt, the structure may show the parent alone.

Please look up its z-score of subpopulation abundance: CC(NC(C)(C)C)C(=O)c1cccc(Cl)c1 (centres undefined) [Amfebutamone (Bupropion) HCl]
-0.74

// returns reported z-score of subpopulation abundance for input `Cn1cc(C2=C(c3cn(C4CCN(Cc5ccccn5)CC4)c4ccccc34)C(=O)NC2=O)c2ccccc21`
-0.32

Given the molecule C[C@H]1O[C@H](O[C@H]2[C@H](O)[C@@H](O)[C@@H](O)[C@H](O)[C@@H]2O)[C@@H](N)C[C@@H]1NC(=N)C(=O)O [Kasugamycin hydrochloride] , what is its reported z-score of subpopulation abundance?
-0.14

Quick check: z-score of subpopulation abundance of `C=C(C)[C@H]1Cc2c(ccc3c2O[C@@H]2COc4cc(OC)c(OC)cc4[C@@H]2C3=O)O1` ?
0.94
